Data provenance: PubChem BioAssay (NCI)

Tested on: A549/ATCC NSCLC
Assay: NCI-60 one-dose screen, 48 h
Settings: 10 µM unless noted
Compounds without any hit were thinned out: in the full panel of roughly 83,000, 20% have a hit. Activity calls are given as the source filed them. Rule for the calls: active = growth percent below 10; inactive = the rest.
Possible outcomes: active, inactive

{"COMPOUND": "CN1c2ccccc2Sc2cc(C=C(C#N)C#N)ccc21", "LABEL": "inactive"}
{"COMPOUND": "CCO/C=N/C1=C(C#N)C(c2ccc(F)cc2)c2sc3c(CC)cccc3c2O1 (centres undefined)", "LABEL": "inactive"}
{"COMPOUND": "O=C(NNc1nc2cc(F)c(F)cc2n2cccc12)c1cnccn1", "LABEL": "inactive"}
{"COMPOUND": "COc1cc(/C=N/NC(=O)c2cn(C3CC3)c3c(OC)c(N4CC5CCCNC5C4)c(F)cc3c2=O)ccc1O (centres undefined)", "LABEL": "active"}
{"COMPOUND": "c1ccc(C(c2nc3ncncc3[nH]2)N2CSc3nc4ccccc4n3C2)cc1 (centres undefined)", "LABEL": "inactive"}
{"COMPOUND": "CCCCCc1ccc(S(=O)(=O)Nc2cc(-c3csc(NC(=O)CN4CCN(C)CC4)n3)ccc2OC)cc1", "LABEL": "inactive"}
{"COMPOUND": "CC1=CC(=O)C2=C(C)CC(OC(=O)CCc3ccccc3)[C@@H]3[C@H](OC(=O)[C@@H]3C)[C@@H]12 (some centres undefined)", "LABEL": "inactive"}
{"COMPOUND": "COc1ccc(-c2nc(C(Cl)Cl)nc3cc(-c4ccccc4)nn23)cc1", "LABEL": "active"}
{"COMPOUND": "C=C(C=O)[C@@H]1CC[C@]2(C)[C@H](C(=O)C=C3[C@H]4C[C@](C)(C(=O)OC)CC[C@]4(C)CC[C@]32C)[C@@]1(C)CCC#N", "LABEL": "inactive"}
